The values you see were collected from ChEMBL document CHEMBL4270667.

Each record here notes measured selectivity ratio.
Assay: Selectivity ratio of CC50 for human MT4 cells to IC50 for HIV1 NL4-3 infected in human MT4 cells
Type: toxicity, cell-based
Settings: MT4 cells infected with HIV1 NL4-3, read-out: Ratio CC50/IC50

smiles-code | selectivity ratio
COc1ccc(S(=O)(=O)N(CC(C)C)C[C@@H](O)[C@H](Cc2ccccc2)NC(=O)O[C@@H]2C[C@@H]3OC(=O)N(C)[C@@H]3C2)cc1 | > 229

-- ask Give a short answer stating reported selectivity ratio for COc1ccc(S(=O)(=O)N(CC(C)C)C[C@@H](O)[C@H](Cc2ccccc2)NC(=O)O[C@H]2C[C@H]3OC(=O)N(C)[C@H]3C2)cc1 .
-- reply > 2780

-- ask Give a short answer stating reported selectivity ratio for CC(C)CN(C[C@@H](O)[C@H](Cc1ccccc1)NC(=O)O[C@H]1C[C@H]2OC(=O)N(C)[C@H]2C1)S(=O)(=O)c1ccc2nc(NC3CC3)sc2c1 .
-- reply 1540

-- ask Give a short answer stating reported selectivity ratio for C=C(C)CN1C(=O)O[C@@H]2C[C@H](OC(=O)N[C@@H](Cc3ccccc3)[C@H](O)CN(CC(C)C)S(=O)(=O)c3ccc(OC)cc3)C[C@@H]21 .
-- reply > 3230

-- ask Give a short answer stating reported selectivity ratio for COc1ccc(S(=O)(=O)N(CC(C)C)C[C@@H](O)[C@H](Cc2ccccc2)NC(=O)O[C@H]2C[C@H]3OC(=O)N(CC(C)C)[C@H]3C2)cc1 .
-- reply > 2440

-- ask Give a short answer stating reported selectivity ratio for COc1ccc(S(=O)(=O)N(CC(C)C)C[C@@H](O)[C@H](Cc2ccccc2)NC(=O)O[C@@H]2C[C@@H]3NC(=O)O[C@@H]3C2)cc1 .
-- reply > 2070

###

Each record here notes measured Ki.
Target: Protease (Human immunodeficiency virus 1, UniProt Q9YQ12)
Sequence (Q9YQ12 whole entry): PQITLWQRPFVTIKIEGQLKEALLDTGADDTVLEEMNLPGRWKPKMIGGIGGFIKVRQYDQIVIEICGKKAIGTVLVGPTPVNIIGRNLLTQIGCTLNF
Could you give the number and then its unit, please?

Use the examples below as a reference point.
smiles-code | Ki
COc1ccc(S(=O)(=O)N(CC(C)C)C[C@@H](O)[C@H](Cc2ccccc2)NC(=O)O[C@H]2C[C@H]3OC(=O)N(c4ccccc4OC)[C@H]3C2)cc1 | 0.08 nM
CC(C)CN(C[C@@H](O)[C@H](Cc1ccccc1)NC(=O)O[C@H]1C[C@H]2OC(=O)N(C)[C@H]2C1)S(=O)(=O)c1ccc2nc(NC3CC3)sc2c1 | 0.19 nM

From here, focus on the item given below.
-- ask Give a short answer stating reported Ki for COc1ccc(S(=O)(=O)N(CC(C)C)C[C@@H](O)[C@H](Cc2ccccc2)NC(=O)O[C@@H]2C[C@@H]3NC(=O)O[C@@H]3C2)cc1 .
-- reply 0.0012 nM

###

Biological target: Protease (Human immunodeficiency virus 1, UniProt Q9YQ12)
readout-name: pKi
Remember, pKi is on a log scale: it is -log10 of the molar concentration.

Use the examples below as a reference point.
smiles-code | data-value
C=C(C)CN1C(=O)O[C@@H]2C[C@H](OC(=O)N[C@@H](Cc3ccccc3)[C@H](O)CN(CC(C)C)S(=O)(=O)c3ccc(OC)cc3)C[C@@H]21 | 10.40
COc1ccc(S(=O)(=O)N(CC(C)C)C[C@@H](O)[C@H](Cc2ccccc2)NC(=O)O[C@H]2C[C@H]3OC(=O)N(CC(C)C)[C@H]3C2)cc1 | 9.80
COc1ccc(S(=O)(=O)N(CC(C)C)C[C@@H](O)[C@H](Cc2ccccc2)NC(=O)O[C@H]2C[C@H]3OC(=O)N(C)[C@H]3C2)cc1 | 10.52

-- ask Report value: pKi, system: Protease (Human immunodeficiency virus 1, UniProt Q9YQ12), compound: COc1ccc(N2C(=O)O[C@@H]3C[C@H](OC(=O)N[C@@H](Cc4ccccc4)[C@H](O)CN(CC(C)C)S(=O)(=O)c4ccc(OC)cc4)C[C@@H]32)cc1
-- reply 9.20

-- ask Report value: pKi, system: Protease (Human immunodeficiency virus 1, UniProt Q9YQ12), compound: COCN1C(=O)O[C@@H]2C[C@H](OC(=O)N[C@@H](Cc3ccccc3)[C@H](O)CN(CC(C)C)S(=O)(=O)c3ccc(OC)cc3)C[C@@H]21
-- reply 10.80

-- ask Report value: pKi, system: Protease (Human immunodeficiency virus 1, UniProt Q9YQ12), compound: C=CCN1C(=O)O[C@@H]2C[C@H](OC(=O)N[C@@H](Cc3ccccc3)[C@H](O)CN(CC(C)C)S(=O)(=O)c3ccc(OC)cc3)C[C@@H]21
-- reply 10.80

-- ask Report value: pKi, system: Protease (Human immunodeficiency virus 1, UniProt Q9YQ12), compound: COc1ccc(S(=O)(=O)N(CC(C)C)C[C@@H](O)[C@H](Cc2ccccc2)NC(=O)O[C@H]2C[C@H]3OC(=O)N(c4cccc(OC)c4)[C@H]3C2)cc1
-- reply 7.03

-- ask Report value: pKi, system: Protease (Human immunodeficiency virus 1, UniProt Q9YQ12), compound: COc1ccc(S(=O)(=O)N(CC(C)C)C[C@@H](O)[C@H](Cc2ccccc2)NC(=O)O[C@@H]2C[C@@H]3OC(=O)N(C)[C@@H]3C2)cc1
-- reply 9.80
